Value source: patent US20260125371A1

Listing of entries alongside the reported MIC (μg/mL) 24 h.
# System: S. aureus
# Test Protocol: MIC against S. aureus strains
# Assay type: cell-based
# Condition: S. aureus ATCC 29213, 24 h
Reply numerically in µg/mL, unit not repeated.

Some solved entries appear below for comparison.
In [3]: df
Out[3]:
                                   compound  units  meas_value
0  O=[N+]([O-])c1c[nH]nc1-c1nc(-c2ccc(Oc3ccc(C(F)(F)F)cc3)cc2)no1 [Compound 30]  µg/mL           2
1  FC(F)(F)c1ccc(Oc2ccc(-c3noc(-c4cn[nH]n4)n3)cc2)cc1 [Compound 35]  µg/mL          16

Exam item: Tell me MIC (μg/mL) 24 h reported for O=[N+]([O-])c1c[nH]c(-c2nc(-c3ccc(Oc4ccc(C(F)(F)F)cc4)cc3)no2)c1 [Compound 47]
Marked response: 8

* * *

# Tested on: C. difficile ATCC 43255
# Test Protocol: Determination of minimal-inhibitory concentrations (microdilution), C. difficile ATCC 43255
# Format: cell-based, Clostridioides difficile
# Condition: Clostridioides difficile, ATCC43255, 24 h, C. difficile ATCC 43255, 24 h; read-out: MIC (μg/mL) 24 h
Measure: MIC (µg/mL)
Reply numerically in µg/mL, unit not repeated.

Some solved entries appear below for comparison.
>>> print(df.to_string())
                                   molecule        system_under_test  meas_value
0  O=[N+]([O-])c1cnc(-c2nc(-c3ccc(OC4CCCC4)cc3)no2)[nH]1 [Compound 57]  C. difficile ATCC 43255       0.125
1  COc1ccc2oc3ccc(-c4noc(-c5n[nH]cc5[N+](=O)[O-])n4)cc3c2c1 [Compound 119]  C. difficile ATCC 43255           2
2  O=c1[nH]c(-c2ccc(OC3CCCC3)cc2)no1 [Compound 69]  C. difficile ATCC 43255          64

Exam item: Tell me MIC reported for O=C(c1ccc(-c2noc(-c3ccc(O)cc3)n2)cc1)C(F)(F)F [Compound 109]
Marked response: 8
